# tested target: T1, DR3-8i (human)
# T1 construct: also called purified monomeric DR3-8i antigen protein
# T1 chain: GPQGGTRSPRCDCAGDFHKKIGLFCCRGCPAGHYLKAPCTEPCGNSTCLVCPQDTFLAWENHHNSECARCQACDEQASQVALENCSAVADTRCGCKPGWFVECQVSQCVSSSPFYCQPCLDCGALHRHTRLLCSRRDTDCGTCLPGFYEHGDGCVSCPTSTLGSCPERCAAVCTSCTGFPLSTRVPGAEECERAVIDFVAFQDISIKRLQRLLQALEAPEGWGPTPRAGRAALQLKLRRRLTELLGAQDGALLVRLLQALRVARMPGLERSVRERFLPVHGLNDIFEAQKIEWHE
# protocol text: BLI, IgG captured on protein A, DR3-8i in solution; Average
measurement name: Kd

[
  {
    "binder": "VHg2/VLg11 (antibody, human IgG1, V domains shown, human IgG1) VH: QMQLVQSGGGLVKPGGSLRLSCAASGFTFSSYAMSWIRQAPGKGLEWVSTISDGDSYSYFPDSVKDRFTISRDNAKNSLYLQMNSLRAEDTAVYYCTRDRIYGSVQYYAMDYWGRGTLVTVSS VL: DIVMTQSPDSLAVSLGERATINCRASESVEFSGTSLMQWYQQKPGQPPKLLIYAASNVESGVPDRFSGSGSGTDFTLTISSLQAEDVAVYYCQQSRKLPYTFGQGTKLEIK",
    "measurement name": "Kd",
    "value measured": "0.0536 nM"
  }
]
